src = ChEMBL document CHEMBL4304818

species: Homo sapiens; assay: Selectivity index, ratio of IC50 for human recombinant MAO-A expressed in insect cells microsomes to IC50 for human recombinant MAO-B expressed in insect cells microsomes
Reported Ratio IC50 values are given for each entry in this list.
Respond with the number and no other words.

Some entries whose results are on file:
1. NS(=O)(=O)c1ccc(C(=O)NNC(=O)c2ccc(Cl)cc2)cc1: 4.8
2. NS(=O)(=O)c1cccc(-c2nnc(-c3ccc(F)cc3)o2)c1: 35
3. NS(=O)(=O)c1ccc(-c2nnc(-c3ccccc3)o2)cc1: 380

As a next step, examine the molecule that follows.
Entry Cc1ccc(-c2nnc(-c3cccc(S(N)(=O)=O)c3)o2)cc1 has what Ratio IC50?
108

---

Target: Amine oxidase [flavin-containing] A (Homo sapiens, UniProt P21397)
Sequence (P21397 whole entry): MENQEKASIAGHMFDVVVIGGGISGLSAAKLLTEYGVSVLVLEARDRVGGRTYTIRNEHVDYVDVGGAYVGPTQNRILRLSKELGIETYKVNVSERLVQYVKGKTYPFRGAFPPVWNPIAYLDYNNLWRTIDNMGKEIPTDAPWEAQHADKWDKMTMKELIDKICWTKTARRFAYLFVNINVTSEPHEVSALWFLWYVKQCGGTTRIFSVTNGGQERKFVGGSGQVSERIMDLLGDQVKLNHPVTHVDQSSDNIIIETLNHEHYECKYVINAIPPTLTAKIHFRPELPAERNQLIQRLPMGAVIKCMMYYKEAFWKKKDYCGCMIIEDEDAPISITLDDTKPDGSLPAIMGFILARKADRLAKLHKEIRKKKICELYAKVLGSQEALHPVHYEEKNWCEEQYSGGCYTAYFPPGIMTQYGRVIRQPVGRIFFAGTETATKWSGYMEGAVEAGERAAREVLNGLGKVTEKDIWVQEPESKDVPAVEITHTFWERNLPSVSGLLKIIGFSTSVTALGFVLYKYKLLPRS
Assay: Inhibition of human recombinant MAO-A expressed in insect cells microsomes assessed as inhibition of 4-hydroxyquinoline formation using kynuramine as substrate incubated for 20 mins by fluorescence spectrophotometry analysis
parameter.measured: IC50 (µM)
The reply should be a number in µM, with the unit left off.

1. NS(=O)(=O)c1ccc(C(=O)NNC(=O)c2ccc(F)cc2)cc1: 39.6

Entry NS(=O)(=O)c1ccc(-c2nnc(-c3ccc(F)cc3)o2)cc1 has what IC50?
83.8

Entry NS(=O)(=O)c1ccc(C(=O)NNC(=O)c2ccc(Cl)c(Cl)c2)cc1 has what IC50?
13.6

Entry N#Cc1ccc(-c2nnc(-c3ccc(S(N)(=O)=O)cc3)o2)cc1 has what IC50?
24.3

Entry Cc1ccc(-c2nnc(-c3cccc(S(N)(=O)=O)c3)o2)cc1 has what IC50?
61.4

---

target: Amine oxidase [flavin-containing] B (Homo sapiens, UniProt P27338)
Sequence (P27338 whole entry): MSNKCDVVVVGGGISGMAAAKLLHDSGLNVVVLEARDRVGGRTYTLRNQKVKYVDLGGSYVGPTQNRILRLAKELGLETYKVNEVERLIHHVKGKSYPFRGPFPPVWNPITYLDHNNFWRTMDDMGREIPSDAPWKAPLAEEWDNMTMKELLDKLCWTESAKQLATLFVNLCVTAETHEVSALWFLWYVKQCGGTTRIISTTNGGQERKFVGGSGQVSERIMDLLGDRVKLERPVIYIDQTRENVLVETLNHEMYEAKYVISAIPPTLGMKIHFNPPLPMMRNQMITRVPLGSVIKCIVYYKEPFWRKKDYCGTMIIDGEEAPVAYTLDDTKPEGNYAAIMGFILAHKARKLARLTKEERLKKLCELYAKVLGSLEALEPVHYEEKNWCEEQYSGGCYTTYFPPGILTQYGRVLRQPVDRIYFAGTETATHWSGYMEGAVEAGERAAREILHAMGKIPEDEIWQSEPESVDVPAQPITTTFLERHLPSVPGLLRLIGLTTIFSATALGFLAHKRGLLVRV
Reported pIC50 values are given for each entry in this list.
The quantity pIC50 is defined as the negative base-10 logarithm of the molar concentration.

1) Cc1ccc(-c2nnc(-c3ccccc3)o2)cc1S(N)(=O)=O: 6.12

Query for Amine oxidase [flavin-containing] B (Homo sapiens, UniProt P27338): what pIC50 does the record show for NS(=O)(=O)c1ccc(C(=O)NNC(=O)c2ccc(Cl)cc2)cc1 ?
4.93

Query for Amine oxidase [flavin-containing] B (Homo sapiens, UniProt P27338): what pIC50 does the record show for NS(=O)(=O)c1cccc(-c2nnc(-c3ccc(Cl)cc3)o2)c1 ?
6.68

Query for Amine oxidase [flavin-containing] B (Homo sapiens, UniProt P27338): what pIC50 does the record show for NS(=O)(=O)c1ccc(-c2nnc(-c3ccccc3)o2)cc1 ?
6.77

Query for Amine oxidase [flavin-containing] B (Homo sapiens, UniProt P27338): what pIC50 does the record show for Cc1ccc(-c2nnc(-c3cccc(S(N)(=O)=O)c3)o2)cc1 ?
6.24
